Test system: HeLa
Assay: Compound was tested for the 50% toxic concentration against Human Rhinovirus-14 (HRV-14) in Hela cells
Format: functional
Settings: read-out: TC50 (the source's name)
measurement name: CC50

NC(=O)c1ccc2c(c1)C(=O)C(=O)N2Cc1cc(O)cc(O)c1 ... > 100 µM
CN1C(=O)C(=O)c2cc(C(=O)O)ccc21 ... > 100 µM
CN1C(=O)C(=O)c2cc(I)ccc21 ... > 100 µM
COC(=O)c1ccc2c(c1)C(=O)C(=O)N2C ... > 100 µM
